All figures here come from patent US20240165112A1.

- EXPERIMENTAL_DETAILS: Plasma concentration of Compound 1 at the 400 mg dose
- Type: in vivo
- CONDITION_SET: plasma; 400 mg dose in human
OBSERVABLE: Cmax (µM)
Hi! Could you send only the number? It should be in µM, unit omitted.

Tell me the measured Cmax of `C[C@@H]1CC[C@@H](Nc2nc(NC(C)(C)C)ncc2C(N)=O)C[C@H]1O` , please.
14

---

- Test system: phospho-c-Jun in normal human lung fibroblasts (NHLF)
- EXPERIMENTAL_DETAILS: TGF-β-induced c-Jun phosphorylation (capillary western)
- Format: cell-based
- CONDITION_SET: Fibroblast, 10 ng/mL TGF-β for 2 hours, western blot, read-out: EC50 on phospho-c-Jun levels
OBSERVABLE: EC50 (nM)
Hi! Could you send only the number? It should be in nM, unit omitted.

Tell me the measured EC50 of `C[C@@H]1CC[C@@H](Nc2nc(NC(C)(C)C)ncc2C(N)=O)C[C@H]1O` , please.
350

---

- System: phospho-c-Jun in lung cancer-associated fibroblasts (CAF)
- EXPERIMENTAL_DETAILS: TGF-β-induced c-Jun phosphorylation (capillary western)
- Type: cell-based
- CONDITION_SET: Homo sapiens, Fibroblast, 10 ng/mL TGF-β for 2 hours, western blot, read-out: EC50 on phospho-c-Jun levels
OBSERVABLE: EC50 (nM)
Hi! Could you send only the number? It should be in nM, unit omitted.

Tell me the measured EC50 of `C[C@@H]1CC[C@@H](Nc2nc(NC(C)(C)C)ncc2C(N)=O)C[C@H]1O` , please.
330
